- Assay target: HLA-B*14:02
- Protocol details: IEDB peptide-MHC binding, purified MHC/competitive/fluorescence; filed as Kd, often an IC50 or EC50 that approximates it; bounds were set here for any values at or beyond the usual limits of such assays
- Measurement parameters: source organism: Rickettsia akari str. Hartford
Parameter measured: Kd

API: value(readout=Kd, system=HLA-B*14:02) for record FTARIIIFS
≥ 5 µM

###

- Assay target: HLA-A*26:01
- Protocol details: IEDB peptide-MHC binding, purified MHC/direct/fluorescence; filed as Kd, often an IC50 or EC50 that approximates it; bounds were set here for any values at or beyond the usual limits of such assays
- Measurement parameters: source organism: Sudan virus - Boniface, Sudan,1976
Parameter measured: Kd
Report as: number unit

# lookup: Kd of YTENTSSYY
7 nM

###

- Assay target: HLA-B*18:01
- Protocol details: IEDB peptide-MHC binding, purified MHC/competitive/fluorescence; filed as Kd, often an IC50 or EC50 that approximates it; bounds were set here for any values at or beyond the usual limits of such assays
- Measurement parameters: source organism: Salmonella enterica subsp. enterica serovar Choleraesuis str. SC-B67
pKd: −log10 of the molar value.
Parameter measured: pKd

# lookup: pKd of GIALAVPCV
≤ 4.70

###

- Assay target: HLA-A*11:01
- Protocol details: IEDB peptide-MHC binding, purified MHC/direct/fluorescence; filed as Kd, often an IC50 or EC50 that approximates it; bounds were set here for any values at or beyond the usual limits of such assays
- Measurement parameters: source organism: Brucella abortus
Parameter measured: Kd (µM)
Give bare numbers, in µM.

# lookup: Kd of VQGPGGSTY
8.94

###

- Assay target: HLA-B*07:02
- Protocol details: IEDB peptide-MHC binding, purified MHC/direct/fluorescence; filed as Kd, often an IC50 or EC50 that approximates it; bounds were set here for any values at or beyond the usual limits of such assays
- Measurement parameters: source organism: SARS-CoV1
pKd: −log10 of the molar value.
Parameter measured: pKd

API: value(readout=pKd, system=HLA-B*07:02) for record NPKTPKYKF
≤ 4.54

###

- Assay target: HLA-A*02:01
- Protocol details: IEDB peptide-MHC binding, purified MHC/competitive/fluorescence; bounds were set here for any values at or beyond the usual limits of such assays
- Measurement parameters: source organism: Homo sapiens
Parameter measured: IC50 (nM)
Give bare numbers, in nM.

API: value(readout=IC50, system=HLA-A*02:01) for record YFYYNAFHWAI
2910

###

Could you please report measured Kd for the items listed next?
- Assay target: HLA-B*57:01
- Protocol details: IEDB peptide-MHC binding, purified MHC/competitive/radioactivity; filed as Kd, often an IC50 or EC50 that approximates it; bounds were set here for any values at or beyond the usual limits of such assays
- Measurement parameters: source organism: Dengue virus 3 Martinique/1243/1999
Answers are plain numbers, in nM.

Consider the reported Kd for these sequences:
sequence_data=GTSLTQKVVI measured_result=2300
sequence_data=SASSMINGVV measured_result=1990
sequence_data=TALFSGVSW measured_result=0.589
sequence_data=SSSMRKTDW measured_result=416

// moving on: another record for Kd
# lookup: Kd of QTQRSGVLW
18.7

###

- Assay target: HLA-A*03:01
- Protocol details: IEDB peptide-MHC binding, purified MHC/competitive/radioactivity; filed as Kd, often an IC50 or EC50 that approximates it; bounds were set here for any values at or beyond the usual limits of such assays
- Measurement parameters: source organism: Lymphocytic choriomeningitis virus (strain WE)
Parameter measured: Kd
Report as: number unit

# lookup: Kd of SRILFAQEK
15.7 µM

###

- Assay target: HLA-B*44:02
- Protocol details: IEDB peptide-MHC binding, purified MHC/direct/fluorescence; filed as Kd, often an IC50 or EC50 that approximates it; bounds were set here for any values at or beyond the usual limits of such assays
- Measurement parameters: source organism: Escherichia coli O157:H7 str. EC869
Parameter measured: Kd

# lookup: Kd of ESMMGSTAM
≥ 20 µM

###

- Assay target: HLA-B*35:01
- Protocol details: IEDB peptide-MHC binding, cellular MHC/competitive/fluorescence; bounds were set here for any values at or beyond the usual limits of such assays
- Measurement parameters: source organism: Mycobacterium tuberculosis H37Rv
Parameter measured: pIC50
One number for each entry, as −log10 of the molar value.

# lookup: pIC50 of MPVGGQSSFY
6.52

###

- Assay target: HLA-C*06:02
- Protocol details: IEDB peptide-MHC binding, purified MHC/direct/fluorescence; filed as Kd, often an IC50 or EC50 that approximates it; bounds were set here for any values at or beyond the usual limits of such assays
- Measurement parameters: source organism: Bacillus anthracis str. A0488
Parameter measured: pKd
One number for each entry, as −log10 of the molar value.

# lookup: pKd of IYPFHVQKI
6.09

###

- Assay target: HLA-B*46:01
- Protocol details: IEDB peptide-MHC binding, purified MHC/direct/fluorescence; filed as Kd, often an IC50 or EC50 that approximates it; bounds were set here for any values at or beyond the usual limits of such assays
- Measurement parameters: source organism: Salmonella enterica subsp. enterica serovar Typhimurium str. LT2
pKd: −log10 of the molar value.
Parameter measured: pKd

# lookup: pKd of FKYDSTKPL
≤ 4.70

###

- Assay target: HLA-B*18:01
- Protocol details: IEDB peptide-MHC binding, purified MHC/direct/fluorescence; filed as Kd, often an IC50 or EC50 that approximates it; bounds were set here for any values at or beyond the usual limits of such assays
- Measurement parameters: source organism: Marburg virus - Musoke, Kenya, 1980
Parameter measured: Kd

# lookup: Kd of KLDFIRNTK
≥ 20 µM

###

- Assay target: HLA-B*40:01
- Protocol details: IEDB peptide-MHC binding, purified MHC/direct/fluorescence; filed as Kd, often an IC50 or EC50 that approximates it; bounds were set here for any values at or beyond the usual limits of such assays
- Measurement parameters: source organism: Campylobacter jejuni
Parameter measured: Kd

sequence_data=VFKVKLHEI measured_result="≥ 20 µM"

# lookup: Kd of VKKLWGHLP
≥ 20 µM

###

- Assay target: HLA-A*02:06
- Protocol details: IEDB peptide-MHC binding, purified MHC/competitive/radioactivity; filed as Kd, often an IC50 or EC50 that approximates it; bounds were set here for any values at or beyond the usual limits of such assays
- Measurement parameters: source organism: Dengue virus 3 Martinique/1243/1999
Could you please report measured Kd for the items listed next?
Give bare numbers, in nM.

sequence_data=KLNDWDFVV parameter_measured=Kd measured_result=44.6

// moving on: another record for Kd
# lookup: Kd of YAMCTNTFV
56.1

###

- Assay target: HLA-B*40:02
- Protocol details: IEDB peptide-MHC binding, purified MHC/competitive/radioactivity; filed as Kd, often an IC50 or EC50 that approximates it; bounds were set here for any values at or beyond the usual limits of such assays
- Measurement parameters: source organism: Mammarenavirus choriomeningitidis
Parameter measured: pKd
Answers are plain numbers, as −log10 of the molar value.

# lookup: pKd of AELLPDTTYL
6.78

###

- Assay target: HLA-A*68:02
- Protocol details: IEDB peptide-MHC binding, purified MHC/direct/fluorescence; filed as Kd, often an IC50 or EC50 that approximates it; bounds were set here for any values at or beyond the usual limits of such assays
- Measurement parameters: source organism: Choclo virus
Parameter measured: Kd

# lookup: Kd of FSLPSSSSY
≥ 20 µM

###

- Assay target: HLA-A*30:02
- Protocol details: IEDB peptide-MHC binding, purified MHC/competitive/radioactivity; filed as Kd, often an IC50 or EC50 that approximates it; bounds were set here for any values at or beyond the usual limits of such assays
- Measurement parameters: source organism: SARS coronavirus Tor2
Parameter measured: Kd (µM)
Numbers only, in µM.

Consider the reported Kd for these sequences:
sequence_data=KWDLLKYDF parameter_measured=Kd measured_result=0.0893
sequence_data=ATEETFKLSY parameter_measured=Kd measured_result=0.387

Dear colleague, could you please provide Kd for the sequences listed below?
1. EIEPKLDGYY
2. VVAIDYRHY
3. FSSLPSYAAY
4. ELSPRWYFYY
5. GTGPEASLPY
6. YTGNYQCGHY
7. LTQDLFLPFY

1: 0.534; 2: 0.0117; 3: 0.00277; 4: 0.0601; 5: 0.92; 6: 0.00115; 7: 0.00226

###

- Assay target: HLA-B*15:02
- Protocol details: IEDB peptide-MHC binding, purified MHC/direct/fluorescence; filed as Kd, often an IC50 or EC50 that approximates it; bounds were set here for any values at or beyond the usual limits of such assays
- Measurement parameters: source organism: Yersinia pestis KIM10+
Parameter measured: Kd (nM)
Answers are plain numbers, in nM.

API: value(readout=Kd, system=HLA-B*15:02) for record STFAASGPF
9
